test: Viability of human non-TF expressing MCF10 cell line; format: cell-based; details: MCF10 cells (non-TF expressing)
Metric: viability

I am curious: what viability value has been reported for `N=C(N)NCCC[C@H](NC(=O)[C@H](Cc1ccccc1)NC(=O)[C@H](Cc1ccccc1)NC(=O)CCC(=O)N1C/C(=C\c2ccccc2F)C(=O)/C(=C/c2ccccc2F)C1)C(=O)CCl.O=C(O)C(F)(F)F` ? > 95%
